- EXPERIMENT_DESCRIPTION: Plasma clearance in dog at 1 mg/kg, iv or 2 mg/kg, po by LC/MS/MS analysis
- Format: ADME, organism-based, Canis lupus familiaris
VALUE_TYPE: clearance (mL/min/kg)
Report the figure in mL/min/kg without appending any unit label.

[Q] Quick one: give measured clearance for "O=C(O)CC1CCC2(CC1)CCN(c1cc(OC(F)(F)F)ccc1Cl)CC2"
[A] 9.8

###

- TARGET_OF_ASSAY: Free fatty acid receptor 4 (Mus musculus, UniProt Q7TMA4)
- Sequence (Q7TMA4 whole entry): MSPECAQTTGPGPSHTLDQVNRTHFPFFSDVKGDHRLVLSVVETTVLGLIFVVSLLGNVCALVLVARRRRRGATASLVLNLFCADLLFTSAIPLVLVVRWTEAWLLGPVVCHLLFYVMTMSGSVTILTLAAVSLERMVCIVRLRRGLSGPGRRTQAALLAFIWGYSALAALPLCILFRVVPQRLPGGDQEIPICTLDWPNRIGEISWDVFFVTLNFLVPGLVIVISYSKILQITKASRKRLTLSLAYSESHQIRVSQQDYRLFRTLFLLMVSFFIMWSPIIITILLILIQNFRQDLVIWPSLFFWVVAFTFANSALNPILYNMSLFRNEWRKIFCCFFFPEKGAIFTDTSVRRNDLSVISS
- EXPERIMENT_DESCRIPTION: Agonist activity at mouse GPR120 expressed in CHOK1 cells assessed as induction of IP1 accumulation after 60 mins by HTRF assay
- Type: functional, cell-based, CHO-K1
VALUE_TYPE: EC50 (nM)
Report the figure in nM without appending any unit label.

// below: answered compounds
>>> reading("O=C(O)CC1CCC2(CC1)CCN(c1cc(OC(F)(F)F)ccc1F)CC2")
49
>>> reading("O=C(O)CC1CCC2(CC1)CCN(c1cc(C(F)(F)F)ccc1F)CC2")
590
>>> reading("CC1(C)Cc2cc(Cl)cc(N3CCC4(CCC(CC(=O)O)CC4)CC3)c2O1")
670
>>> reading("O=C(O)CC1CCC2(CC1)CCN(c1cc(Cl)cc(Cl)c1)CC2")
51

[Q] Quick one: give measured EC50 for "COc1ccc(Cl)c(N2CCC3(CCC(CC(=O)O)CC3)CC2)c1"
[A] 570

[Q] Quick one: give measured EC50 for "O=C(O)CC1CCC2(CC1)CCN(c1cc(F)cc(Cl)c1F)CC2"
[A] 190
